- Test system: HBV
- assay_remarks: HepAD38 anti-HBV assay: reduction of viral product accumulation (virion DNA by qPCR, HBsAg or HBeAg by ELISA)
- Format: cell-based
- assay_setup: Hepatitis B virus, 120 h; HepAD38 cells, harvest five days after compound addition; 50% reduction of viral product vs no drug controls; class symbols
Listing: EC50 of selected compounds

For orientation, consider the following solved cases.
# EC50 of C=CCN1C[C@@]2(CC3=C(c4ccn(C(F)F)n4)[C@H](c4ccc(F)cc4Cl)N=C(c4nccs4)N3C2)NC1=O = < 100 nM

# EC50 of O=C1N[C@@]2(CO1)CC1=C(c3cnn(C(F)F)n3)[C@H](c3ccc(F)cc3Cl)N=C(c3nccs3)N1C2 = < 100 nM

# EC50 of O=C1N[C@@]2(CO1)CC1=C(c3ccn(C(F)F)n3)[C@H](c3ccc(Cl)c(F)c3)N=C(c3nccs3)N1C2 = < 100 nM

# EC50 of O=C1N[C@@]2(CO1)CC1=C(c3ccn(C(F)F)n3)[C@H](c3ccc(F)c(F)c3)N=C(c3nccs3)N1C2 = < 100 nM

# EC50 of C#CCN1CC2(CC3=C(c4ccn(C(F)F)n4)[C@H](c4ccc(F)cc4Cl)N=C(c4nccs4)N3C2)OC1=O (stereo partly shown) = > 400 nM

# EC50 of O=C1OC2(CC3=C(c4ccn(C(F)F)n4)[C@H](c4ccc(F)cc4Cl)N=C(c4nccs4)N3C2)CN1Cc1ccccc1 (stereo partly shown) = > 400 nM

Further cases:
# EC50 of O=C1N[C@@]2(CO1)CC1=C(c3cnn(C(F)F)c3)[C@H](c3ccc(Cl)c(F)c3)N=C(c3nccs3)N1C2 = < 100 nM
